Tested on: U2OS
Assay name: Incucyte cell viability with U2OS; note: unitless GR value; below 1 slowed growth and below 0 cell loss
Assay type: toxicity, cell-based
Experimental conditions: human, 0 h, 10 µM, compound concentration 10 uM, replicate number 1, timepoint 0 hours
Recorded Growth Rate, one value per entry.
The answer should be a number; do not append a unit.

CCNC(=O)[C@H]1O[C@@H](n2cnc3c(N)ncnc32)[C@H](O)[C@@H]1O.O; -0.43

Q. Form field: reported Growth Rate of COc1cc(C(=O)N2CC[C@@H](O)[C@@H](N)C2)cc2nc(-c3cc4ccccc4n3CC3CC3)n(C)c12.Cl
A. -0.04

Q. Dear colleague, I am looking for the recorded Growth Rate of the following compound: CNC[C@H](O)c1ccc(O)c(O)c1 [EPINEPHRINE]
A. 0.36

Q. Recorded Growth Rate for Cc1ccc(F)cc1C(=O)Nc1ccc(C(=O)N2Cc3cccn3Cc3ccccc32)c(Cl)c1 [LIXIVAPTAN] , please?
A. -0.09

Hello, the source for this data is ChEMBL document CHEMBL5058564, in case you need it.
